- Test system: HEK293T
- Procedure Text: median enrichment of reporter reads in eGFP-reduced (low/intermediate) vs eGFP-high sorted cells (eGFP-extension fusion abundance) (ratio); higher = stronger loss of eGFP-fusion protein abundance (more destabilising extension)
Assign class by median enrichment: not lower than 7 means 1; lower than 7 means 0.

Biopolymer Sequence	Label Class
QVVHIYGIWYEILICVYNT [ZNF230]	1
CGPGGSGRGWPHPHDHCPGGGGLLLLSF [BIK]	1
LLTVFHKEDV [ATP2A2]	1

Input line: Is the recorded value of median enrichment equal to or greater than 7 for this sequence? LPSASGSVVGQALIPALWGGSLYSLFGGMVTEFIVEPFSVQMLWLQIRNPTSPG [GOLGA3]
Output line: 0

Input line: Is the recorded value of median enrichment equal to or greater than 7 for this sequence? YLARPDPLGPFFFADNHCPAASGTSGSQGTQSSLLAVDFPLLLEPPIKEIQRDSCRPEAEHTFMAGALRGVLDPAPGDTIHFY [PLOD1]
Output line: 1

Input line: Is the recorded value of median enrichment equal to or greater than 7 for this sequence? WARSAVSSQWILVNWWRLADTLEKPKPESLLFSLFSCLCSVSLNTTFSAMVCG [MRFAP1]
Output line: 0

Input line: Is the recorded value of median enrichment equal to or greater than 7 for this sequence? RVAVWEPLCLAPGYPGPGNLRAGERWGGRHAEVLLVTGLPSLTCTYLHPELSSSPSSCLLLPTCLPSAGAPRPTHSYCTVHFI [SLC36A1]
Output line: 0

Input line: Is the recorded value of median enrichment equal to or greater than 7 for this sequence? LRKLILLIFMTNLYICF [RGS18]
Output line: 1

Input line: Is the recorded value of median enrichment equal to or greater than 7 for this sequence? WVDGRNIFINQIESIYKNGSRILPQFFCQKVCIYVCIYIYLYIYMTDVF [GCC2]
Output line: 1

###

For each entry below, report its median enrichment value.
- Tested on: HEK293T;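 note: lentiviral eGFP-IRES-mCherry reporter pool sorted by FACS 96 h post-transduction, gated on mCherry-high cells, Illumina read counts normalized per million, median across four biological replicates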
- Procedure Text: median enrichment of reporter reads in eGFP-reduced (low/intermediate) vs eGFP-high sorted cells (eGFP-extension fusion abundance) (ratio); higher = stronger loss of eGFP-fusion protein abundance (more destabilising extension)
Give bare numbers.

Substance	Experimental Target	Assay Result
CQKHKMMQCGPPCTFCNVIAVNGKTIALLKTHL [MARCH11]	HEK293T	12.3

Hi there! I need median enrichment for each item below, if you can.
1. WGPAWHPVTPPQCLSWP [CSHL1]
2. YSQRGGQSQSQLLSCPLLPARALVLTPSCIPHLRSVY [SLC2A11]
3. SFTHHMDSIYKSQ [EDNRB]
4. YSQTNTPYVSVNPCYLSRVCYFPSHRPNPWSPRGSHTTAITQCRGHA [HIP1]
5. QRPVLVSHPCHSRSLPVPLLPKMPWLDWTPSPHDHASDCHPLPVPKSMCTPLTTGTAPPNHRHQATI [PTPRCAP]
6. KSIIILQHLRVWQLFVWAFAHAMPSLPSPTPTRGDS [SPATA12]
7. WQPPASHTVLQLTAHVHAVRADSSSTQQTRTYGLWMDADDGTVQ [CALN1]

Output line:
[7.99, 11.1, 1.08, 2.78, 8.88, 8.97, 8.36]

Hi there! I need median enrichment for each item below, if you can.
1. YISTLFLKLTFQCH [GPNMB]
2. QAMPRPRT [CREB3L1]
3. LSPQMGAEIFQSLEFFQ [ZNF112]
4. VGTMAAGRAPGK [Degron APPBP2]
5. KCSIYIYN [REC114]
6. YRKVSVSPNPHSNEF [GPR22]
7. QHLQEEEEKEGTPDWI [GPR158]
8. GGPMGMSMAQPSYTPPQMTPHPTQLRHGPPMHSYLPSHPHHPAMMMHGGPPTHPGMTMSAQSPTMLNSVDPNVGGQVMDIHAQ [MEIS2]

Output line:
1: 7.14; 2: 0.317; 3: 0.686; 4: 6; 5: 18.5; 6: 41.8; 7: 1.29; 8: 2.36

Hi there! I need median enrichment for each item below, if you can.
1. LDRTWEPGGWEGQG [SLC35G6]
2. YTSRTAT [NCOA6]
3. CERGLSSSLPAPSSPRPSSLCAW [HOXC10]

Output line:
0.429
0.753
2.77
